B1: 2M8U (parent)
chain: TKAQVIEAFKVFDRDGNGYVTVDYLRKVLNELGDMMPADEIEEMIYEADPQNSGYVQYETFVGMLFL

# Variants of: B1
# Method Notes: folding stability dG (cDNA display proteolysis); higher = more stable
# Condition Label: PBS, room temperature
Readout Kind: folding stability dG (kcal/mol)
The answer is to be given in kcal/mol; state only the numeric part.

Solved entries:
alteration=G63D meas_value=4.19
alteration=M36G meas_value=3.48

Looking for the measured folding stability dG of V11S , can you help? 3.56

Looking for the measured folding stability dG of R14C , can you help? 3.42

Looking for the measured folding stability dG of A8Q , can you help? 3.3
